Hello, the source for this data is PubChem BioAssay (NCI), in case you need it.

- System: UACC-257 melanoma
- test method notes: NCI tumour cell line growth inhibition, 48 h; in the data active = GI50 below about 0.43 µM; inactive = the rest
Return exactly one item of true (1) for active, false (0) for inactive

Exercise: What did this assay record as the result for COC(=O)C1CCC(NC(=O)c2csc([C@@H](C[C@H](C(C)C)N(C)C(=O)[C@@H](NC(=O)[C@H]3CCCCN3C)C(C)C)OC(C)=O)n2)CC1 (some centres undefined) ?
Solution: false (0)

Exercise: What did this assay record as the result for CCOC(=O)c1ccc2[nH]c(O)c(C(=Nc3ccc(N(C)C(=O)CN4CCN(C)CC4)cc3)c3ccccc3)c2c1 ?
Solution: false (0)

Exercise: What did this assay record as the result for Nc1cc(N)c2nc(-c3ccccc3)c(Sc3ccc(Cl)c(Cl)c3)nc2c1 ?
Solution: false (0)

Exercise: What did this assay record as the result for Cc1ccc(S(=O)(=O)NC2=NCCN2C(=S)SN2CCn3c2nsc3=S)cc1 ?
Solution: false (0)

Exercise: What did this assay record as the result for CCCN1C(=O)/C(=C/c2cccc(O)c2)SC1=Nc1ccc(OC)cc1 ?
Solution: false (0)

Exercise: What did this assay record as the result for Brc1ccc2[nH]cc([C@H]3CN[C@@H](c4c[nH]c5ccc(Br)cc45)CN3)c2c1 ?
Solution: false (0)

Exercise: What did this assay record as the result for O=C(COc1cccc(/C=C2/Oc3ccccc3C2=O)c1)Nc1nccs1 ?
Solution: false (0)

Exercise: What did this assay record as the result for CN1CCN(c2ccc(N3Cc4ccccc4OC4=C3C(=O)c3c(O)ccc(O)c3C4=O)cn2)CC1 ?
Solution: true (1)

Exercise: What did this assay record as the result for CCc1c2c(nc3ccc(OC(=O)NCc4ccc(B5OC(C)(C)C(C)(C)O5)cc4)cc13)-c1cc3c(c(=O)n1C2)COC(=O)[C@]3(O)CC ?
Solution: true (1)

---

- Test system: TK-10 renal
- test method notes: NCI tumour cell line growth inhibition, 48 h
For each entry below, report its GI50 value.

Exercise: Requested field: GI50. Item: Oc1ccccc1N=Cc1c(O)ccc2ccccc12
Solution: 14.2 µM

Exercise: Requested field: GI50. Item: Cc1ccc(NCCN2CCCCC2)c2c(=O)c3ccccc3sc12
Solution: 2 µM

Exercise: Requested field: GI50. Item: [Co+2].[O-]c1ccccc1C=NCc1ccccc1.[O-]c1ccccc1C=NCc1ccccc1
Solution: > 100 µM

Exercise: Requested field: GI50. Item: COc1ccc2c(c1)CCC1C2CCC2(C)C3=CC(O)CCC3CC12 (stereo unspecified)
Solution: 21.2 µM

Exercise: Requested field: GI50. Item: CN1C(=O)/C(=C/c2c(Cl)[nH]c3ccccc23)c2ccccc21
Solution: 14 µM

Exercise: Requested field: GI50. Item: O=C(Nc1ccc(Cl)cc1)Nc1ccc(Oc2nncc3ccccc23)cc1
Solution: 2.12 µM

Exercise: Requested field: GI50. Item: CCCN1C(=O)/C(=C/c2cccc(O)c2)SC1=Nc1ccc(OC)cc1
Solution: 9.62 µM

Exercise: Requested field: GI50. Item: COC(=O)C1CCC(NC(=O)c2csc([C@@H](C[C@H](C(C)C)N(C)C(=O)[C@@H](NC(=O)[C@H]3CCCCN3C)C(C)C)OC(C)=O)n2)CC1 (stereo partly specified)
Solution: 1.05 µM

Exercise: Requested field: GI50. Item: CS(=O)(=O)Nc1ccc(Nc2c3ccccc3nc3cc(N)ccc23)cc1
Solution: 6.08 µM

Exercise: Requested field: GI50. Item: Clc1ccc(N2CCN(CCCN3CCN(c4cccc(Cl)c4)CC3)CC2)cc1
Solution: 5.32 µM

Exercise: Requested field: GI50. Item: CSCCC(NC(=O)CNC(=O)C(CC(=O)O)NC(=O)C(NC(=O)C(NC(=O)C(NC(=O)CNC(=O)C(CCC(N)=O)NC(=O)C(CCSC)NC(=O)C(CC(=O)O)NC(=O)C(C)NC(=O)C(C)NC(=O)C(NC(=O)C(CO)NC(=O)C(N)CC(C)C)C(C)O)C(C)C)C(C)C)C(C)O)C(=O)NC(C)C(=O)NC(CO)C(=O)NCC(=O)NC(CC(C)C)C(=O)NC(CC(=O)O)C(=O)NC(CCCCN)C(=O)NC(CC(=O)O)C(=O)NC(Cc1ccc(O)cc1)C(=O)NC(CC(C)C)C(=O)NC(CCCCN)C(=O)N1CCCC1C(=O)NC(CC(=O)O)C(=O)NC(CC(=O)O)C(=O)O (stereo unspecified)
Solution: > 82.5 µM

---

- Test system: COLO 205 colon
- test method notes: NCI tumour cell line growth inhibition, 48 h
test readout: TGI (µM)
// units = µM; emit number, no label

Exercise: Requested field: TGI. Item: O=C(Nc1ccc(Cl)cc1)Nc1ccc(Oc2nncc3ccccc23)cc1
Solution: 2.92

Exercise: Requested field: TGI. Item: COc1ccc2nc3c([N+](=O)[O-])ccc4c3c(c2c1)N(CCCN(C)C)C(=S)N4CCCN(C)C
Solution: 6.01

Exercise: Requested field: TGI. Item: CCOC(=O)C1C(=O)CC(O)(c2ccccc2)C(C(=O)OCC)C1c1ccc(N(C)C)cc1 (stereo unspecified)
Solution: 53.5

Exercise: Requested field: TGI. Item: Cc1ccc(S(=O)(=O)NC2=NCCN2C(=S)SN2CCn3c2nsc3=S)cc1
Solution: 21.2

Exercise: Requested field: TGI. Item: O=C(O[C@H]1CN[C@H](C#Cc2cc3ncnc(Nc4ccc5c(cnn5Cc5ccccc5)c4)c3s2)C1)N1CCOCC1
Solution: 8.7

Exercise: Requested field: TGI. Item: S=C(N/N=C/c1ccccc1)NC12CC3CC(CC(C3)C1)C2
Solution: 89.6

Exercise: Requested field: TGI. Item: CN1CCN(c2ccc(N3Cc4ccccc4OC4=C3C(=O)c3c(O)ccc(O)c3C4=O)cn2)CC1
Solution: 0.302

Exercise: Requested field: TGI. Item: O=c1[nH]c2ccc(C(F)(F)F)cc2nc1Cc1ccccc1
Solution: 40.7

Exercise: Requested field: TGI. Item: CCCN1C(=O)/C(=C/c2cccc(O)c2)SC1=Nc1ccccc1
Solution: 41.5

Exercise: Requested field: TGI. Item: Cc1ccc(C(N)=Nc2ccccc2)cc1
Solution: 42.2

Exercise: Requested field: TGI. Item: CC(C)OP(=O)(OC(C)C)C([CH2][Sn]([CH3])([CH3])[Cl])P(=O)(OC(C)C)OC(C)C
Solution: 29.1

Exercise: Requested field: TGI. Item: CCN(CC)CCOc1nc2c3ccc(Cl)cc3nn2c2ccccc12
Solution: 4.55

Exercise: Requested field: TGI. Item: O=C(N=Nc1ccc(Br)cc1)NNc1ccc(Br)cc1
Solution: 48.9

---

- Tested on: SK-OV-3 ovarian
- test method notes: NCI tumour cell line growth inhibition, 48 h
test readout: TGI

Exercise: Requested field: TGI. Item: CCOC(=O)C1C(=O)CC(O)(c2ccccc2)C(C(=O)OCC)C1c1ccc(N(C)C)cc1 (stereo unspecified)
Solution: 52 µM

Exercise: Requested field: TGI. Item: NC(=O)NC(=O)c1cccc(NC(=O)CI)c1
Solution: 1.06 µM

Exercise: Requested field: TGI. Item: O=C1Cc2c([nH]c3ccc([N+](=O)[O-])cc23)-c2ccccc2N1
Solution: > 100 µM

Exercise: Requested field: TGI. Item: CC1=C(C)C(=O)C2=C(OCCO2)C1=O
Solution: 34.6 µM

Exercise: Requested field: TGI. Item: O=C(CN1CCN(c2ccccc2)CC1)c1ccc2[nH]c(=O)oc2c1
Solution: > 100 µM

Exercise: Requested field: TGI. Item: O=c1[nH]c2ccc(C(F)(F)F)cc2nc1Cc1ccccc1
Solution: > 100 µM

---

- Test system: NCI-H460 lung
- test method notes: NCI tumour cell line growth inhibition, 48 h
For each entry below, report its TGI value.

Exercise: Requested field: TGI. Item: C=CS(=O)(=O)c1c2cc(OC)ccc2nc2ccc(OC)cc12
Solution: > 44.3 µM

Exercise: Requested field: TGI. Item: NCCCCCCn1c2c(c3ccccc3c1=O)C(=O)c1ccccc1-2
Solution: 11.3 µM

Exercise: Requested field: TGI. Item: S=C(N/N=C/c1ccccc1)NC12CC3CC(CC(C3)C1)C2
Solution: > 100 µM

Exercise: Requested field: TGI. Item: COc1ccc2c(-c3ccc(OCCN(C)C)cc3)c(Oc3ccccc3)c(=O)oc2c1
Solution: 22.2 µM

Exercise: Requested field: TGI. Item: C=C(CN(C)C)C1(c2ccccc2)CC2(CCCC2)C(=O)O1 (stereo not given)
Solution: > 100 µM

Exercise: Requested field: TGI. Item: CCOC(=O)c1sc2nc(SC)nc(N3CCCCC3)c2c1N
Solution: > 100 µM

Exercise: Requested field: TGI. Item: CC1(C)COC2(OC1)C1=NS(=O)(=O)CC13CCC2C3(C)C (stereo not given)
Solution: > 100 µM

Exercise: Requested field: TGI. Item: O=C(Nc1nc2ncn(CCNCCn3cnc4nc(NC(=O)c5ccccc5)[nH]c(=O)c43)c2c(=O)[nH]1)c1ccccc1
Solution: > 100 µM

Exercise: Requested field: TGI. Item: CC1=C(C(=O)NNC(=O)c2ccccc2)CC(C(=O)NNC(=O)c2ccccc2)=C(C)N1
Solution: > 100 µM

Exercise: Requested field: TGI. Item: N#CC(/C(=N/N=C(N)N)C(=O)Nc1ccccc1[N+](=O)[O-])c1nc(-c2ccc([N+](=O)[O-])cc2)cs1 (stereo not given)
Solution: > 100 µM
